- experimental_target: Human AMPK α2ß2γ1 (Homo sapiens, UniProt O43741+P54646)
- Construct: The full length cDNAs of human AMPK ß2 (NM_005399.3) and human AMPK α2 (NM_006252.3); The full length cDNAs of human AMPK ß2 (NM_005399.3); 6xHis (N); made in house; host or cells: Escherichia coli BL21 CodonPlus (DE3)-RIL
- Sequence (P54646 whole entry): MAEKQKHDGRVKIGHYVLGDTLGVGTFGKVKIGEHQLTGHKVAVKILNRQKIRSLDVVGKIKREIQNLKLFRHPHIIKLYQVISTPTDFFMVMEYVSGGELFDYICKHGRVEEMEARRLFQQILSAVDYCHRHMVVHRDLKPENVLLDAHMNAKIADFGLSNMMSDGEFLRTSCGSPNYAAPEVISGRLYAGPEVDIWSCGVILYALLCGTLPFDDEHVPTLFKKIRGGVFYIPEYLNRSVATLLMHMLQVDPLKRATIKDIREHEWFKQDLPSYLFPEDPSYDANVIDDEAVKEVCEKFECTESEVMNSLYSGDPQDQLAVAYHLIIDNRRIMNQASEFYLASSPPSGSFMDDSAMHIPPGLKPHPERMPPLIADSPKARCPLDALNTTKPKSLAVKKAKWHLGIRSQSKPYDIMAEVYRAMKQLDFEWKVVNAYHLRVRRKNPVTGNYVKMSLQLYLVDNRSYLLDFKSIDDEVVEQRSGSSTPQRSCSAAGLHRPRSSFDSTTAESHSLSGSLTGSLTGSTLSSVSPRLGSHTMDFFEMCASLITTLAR
- Sequence (O43741 whole entry): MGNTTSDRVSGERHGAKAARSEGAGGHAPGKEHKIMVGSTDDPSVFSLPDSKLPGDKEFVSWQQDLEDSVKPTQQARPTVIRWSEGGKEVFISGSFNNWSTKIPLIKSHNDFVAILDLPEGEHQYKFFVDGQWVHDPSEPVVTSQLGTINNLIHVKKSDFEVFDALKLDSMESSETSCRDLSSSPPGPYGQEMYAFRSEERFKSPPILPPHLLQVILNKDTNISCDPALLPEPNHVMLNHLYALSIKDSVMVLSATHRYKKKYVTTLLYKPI
- Sequence (P54619 whole entry partner): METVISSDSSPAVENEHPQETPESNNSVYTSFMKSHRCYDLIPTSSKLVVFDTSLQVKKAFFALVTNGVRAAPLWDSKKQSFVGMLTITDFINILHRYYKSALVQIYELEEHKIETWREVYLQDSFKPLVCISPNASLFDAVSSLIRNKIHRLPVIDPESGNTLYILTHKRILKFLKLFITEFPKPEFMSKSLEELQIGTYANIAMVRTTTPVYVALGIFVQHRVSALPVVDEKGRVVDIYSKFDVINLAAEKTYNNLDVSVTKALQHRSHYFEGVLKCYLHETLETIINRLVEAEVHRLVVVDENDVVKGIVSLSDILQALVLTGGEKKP
- procedure_summary: Test Example 2: evaluation of an activator for AMP-activated protein kinase (AMPK), LabChip mobility shift assay with CaMKK2-phosphorylated enzyme
- Assay type: biochemical
- test_settings: relative to control (100%), read-out: Emax (maximum rate of increase in activity within the measurement range)
measured_attribute: Emax (%)

NC(=O)COc1cc(F)c2c(c1)CCC2Nc1nc2nc(O[C@@H]3CO[C@H]4[C@@H]3OC[C@H]4O)[nH]c2cc1Cl (stereo partly drawn) [Compound I-1-42]	391
O[C@@H]1CO[C@H]2[C@@H]1OC[C@H]2Oc1nc2nc(NC3CCc4cc(OCC5COC5)cc(F)c43)c(Cl)cc2[nH]1 (stereo partly drawn) [Compound I-2-53]	637
N#CCn1cc(-c2cc(F)c3c(c2)CC[C@@H]3Nc2nc3nc(O[C@@H]4CO[C@H]5[C@@H]4OC[C@H]5O)[nH]c3cc2Cl)cn1 [Compound I-2-78]	692

----------
- experimental_target: Human AMPK α2ß2γ1 (Homo sapiens, UniProt O43741+P54646)
- Construct: The full length cDNAs of human AMPK ß2 (NM_005399.3) and human AMPK α2 (NM_006252.3); The full length cDNAs of human AMPK ß2 (NM_005399.3); 6xHis (N); made in house; host or cells: Escherichia coli BL21 CodonPlus (DE3)-RIL
- procedure_summary: Test Example 2: evaluation of an activator for AMP-activated protein kinase (AMPK), LabChip mobility shift assay with CaMKK2-phosphorylated enzyme
- Format: biochemical
- test_settings: relative to control (100%), read-out: Emax (maximum rate of increase in activity within the measurement range)
measured_attribute: Emax

O[C@@H]1CO[C@H]2[C@@H]1OC[C@H]2Oc1nc2nc(NC3CCc4cc(OCCN5CCOCC5)cc(F)c43)c(Cl)cc2[nH]1 (some centres unmarked)	430%
COCCCc1cnc2c(c1)CCC2Nc1nc2nc(O[C@@H]3CO[C@H]4[C@@H]3OC[C@H]4O)[nH]c2cc1Cl (single isomer, unassigned)	608%
OCCOc1cc(F)c2c(c1)CCC2Nc1nc2nc(O[C@@H]3CO[C@H]4[C@@H]3OC[C@H]4O)[nH]c2cc1Cl (some centres unmarked)	389%
OC/C=C/c1cnc2c(c1)CCC2Nc1nc2nc(O[C@@H]3CO[C@H]4[C@@H]3OC[C@H]4O)[nH]c2cc1Cl (some centres unmarked)	516%
O[C@@H]1CO[C@H]2[C@@H]1OC[C@H]2Oc1nc2nc(NC3CCc4cc(O[C@H]5CCOC5)cc(F)c43)c(Cl)cc2[nH]1 (some centres unmarked)	678%
CC1(COc2cc(F)c3c(c2)CCC3Nc2nc3nc(O[C@@H]4CO[C@H]5[C@@H]4OC[C@H]5O)[nH]c3cc2Cl)COC1 (some centres unmarked)	643%
Cn1ccc(-c2cc(F)c3c(c2)CCC3Oc2nc3nc(O[C@@H]4CO[C@H]5[C@@H]4OC[C@H]5O)[nH]c3cc2Cl)cc1=O (single isomer, unassigned)	454%
O[C@@H]1CO[C@H]2[C@@H]1OC[C@H]2Oc1nc2cc(Cl)c(NC3CCc4cc(OCCOC(F)F)cc(F)c43)nc2[nH]1 (some centres unmarked)	594%
CCOC/C=C/c1cc(F)c2c(c1)CC[C@@H]2Nc1nc2nc(O[C@@H]3CO[C@H]4[C@@H]3OC[C@H]4O)[nH]c2cc1Cl	727%
O=C(NCCOc1cc(F)c2c(c1)CCC2Nc1nc2nc(O[C@@H]3CO[C@H]4[C@@H]3OC[C@H]4O)[nH]c2cc1Cl)C1CCC1 (some centres unmarked)	719%
O[C@@H]1CO[C@H]2[C@@H]1OC[C@H]2Oc1nc2nc(N[C@H]3CCc4cc(-c5ccc(C(F)(F)F)nc5)cc(F)c43)c(Cl)cc2[nH]1	683%
O[C@@H]1CO[C@H]2[C@@H]1OC[C@H]2Oc1nc2nc(NC3CCc4cc(OC5CC6(COC6)C5)cc(F)c43)c(Cl)cc2[nH]1 (some centres unmarked)	634%
CS(=O)(=O)CCCOc1cc(F)c2c(c1)CCC2Nc1nc2nc(O[C@@H]3CO[C@H]4[C@@H]3OC[C@H]4O)[nH]c2cc1Cl (some centres unmarked)	637%
CC(C)(O)/C=C/c1cc(F)c2c(c1)CCC2Nc1nc2nc(O[C@@H]3CO[C@H]4[C@@H]3OC[C@H]4O)[nH]c2cc1Cl (some centres unmarked)	645%
O[C@@H]1CO[C@H]2[C@@H]1OC[C@H]2Oc1nc2nc(N[C@H]3CCc4cc(-c5cnc(C(F)(F)F)nc5)cc(F)c43)c(Cl)cc2[nH]1	676%
Cn1cc(-c2cc(F)c3c(c2)CCC3Oc2nc3nc(O[C@@H]4CO[C@H]5[C@@H]4OC[C@H]5O)[nH]c3cc2Cl)cn1 (single isomer, unassigned)	403%
O[C@@H]1CO[C@H]2[C@@H]1OC[C@H]2Oc1nc2nc(NC3CCc4cc(Br)cnc43)c(Cl)cc2[nH]1 (some centres unmarked)	547%
OCCCOc1cc(F)c2c(c1)CCC2Nc1nc2nc(O[C@@H]3CO[C@H]4[C@@H]3OC[C@H]4O)[nH]c2cc1Cl (some centres unmarked)	387%
O[C@@H]1CO[C@H]2[C@@H]1OC[C@H]2Oc1nc2nc(NC3CCc4cc(OCCN5CCCC5)cc(F)c43)c(Cl)cc2[nH]1 (some centres unmarked)	433%
O[C@@H]1CO[C@H]2[C@@H]1OC[C@H]2Oc1nc2nc(N[C@H]3CCc4cc(/C=C/COC5CCCCO5)cc(F)c43)c(Cl)cc2[nH]1 (some centres unmarked)	583%
O[C@@H]1CO[C@H]2[C@@H]1OC[C@H]2Oc1nc2nc(NC3CCc4cc(OCCOC5CCC5)cc(F)c43)c(Cl)cc2[nH]1 (some centres unmarked)	604%
O[C@@H]1CO[C@H]2[C@@H]1OC[C@H]2Oc1nc2nc(NC3CCc4cc(OCCN5CCCCC5)cc(F)c43)c(Cl)cc2[nH]1 (some centres unmarked)	392%
Cn1nccc1-c1cc(F)c2c(c1)CCC2Nc1nc2nc(O[C@@H]3CO[C@H]4[C@@H]3OC[C@H]4O)[nH]c2cc1Cl (some centres unmarked)	709%

----------
- experimental_target: Human AMPK α2ß2γ1 (Homo sapiens, UniProt O43741+P54646)
- Construct: The full length cDNAs of human AMPK ß2 (NM_005399.3) and human AMPK α2 (NM_006252.3); The full length cDNAs of human AMPK ß2 (NM_005399.3); 6xHis (N); made in house; host or cells: Escherichia coli BL21 CodonPlus (DE3)-RIL
- procedure_summary: Test Example 2: evaluation of an activator for AMP-activated protein kinase (AMPK), LabChip mobility shift assay with CaMKK2-phosphorylated enzyme
- Assay type: biochemical
- test_settings: relative to control (100%), read-out: Emax (maximum rate of increase in activity within the measurement range)
Give Satisfied when the value for Emax is at least 600%. Give Not satisfied when it is less.

CS(=O)(=O)NCCOc1cc(F)c2c(c1)CCC2Nc1nc2nc(O[C@@H]3CO[C@H]4[C@@H]3OC[C@@H]4F)[nH]c2cc1Cl (stereo partly drawn)	Satisfied
O[C@@H]1CO[C@H]2[C@@H]1OC[C@H]2Oc1nc2nc(NC3CCc4cc(OCC5CCO5)cc(F)c43)c(Cl)cc2[nH]1 (stereo partly drawn)	Not satisfied
O[C@@H]1CO[C@H]2[C@@H]1OC[C@H]2Oc1nc2nc(NC3CCc4cc(OCCOCC(F)(F)F)cc(F)c43)c(Cl)cc2[nH]1 (stereo partly drawn)	Satisfied
Cc1ccc(-c2cc(F)c3c(c2)CC[C@@H]3Nc2nc3nc(O[C@@H]4CO[C@H]5[C@@H]4OC[C@H]5O)[nH]c3cc2Cl)cn1	Satisfied
O[C@@H]1CO[C@H]2[C@@H]1OC[C@H]2Oc1nc2nc(NC3CCc4cc(-c5ccnnc5)cc(F)c43)c(Cl)cc2[nH]1 (stereo partly drawn)	Not satisfied
N#Cc1cc(F)c2c(c1)CC[C@@H]2Nc1nc2nc(O[C@@H]3CO[C@H]4[C@@H]3OC[C@H]4O)[nH]c2cc1Cl	Satisfied
Cc1ncc(-c2cc(F)c3c(c2)CC[C@@H]3Nc2nc3nc(O[C@@H]4CO[C@H]5[C@@H]4OC[C@H]5O)[nH]c3cc2Cl)cn1	Satisfied
O=S(=O)(NCCOc1cc(F)c2c(c1)CCC2Nc1nc2nc(O[C@@H]3CO[C@H]4[C@@H]3OC[C@H]4O)[nH]c2cc1Cl)C(F)F (stereo partly drawn)	Satisfied

These entries and their values trace back to patent US20190135834A1.
